# system.name: OCT2 over OCT1, OCT3 and MATE1 (Homo sapiens, UniProt O15244)
# Sequence (O15244 whole entry): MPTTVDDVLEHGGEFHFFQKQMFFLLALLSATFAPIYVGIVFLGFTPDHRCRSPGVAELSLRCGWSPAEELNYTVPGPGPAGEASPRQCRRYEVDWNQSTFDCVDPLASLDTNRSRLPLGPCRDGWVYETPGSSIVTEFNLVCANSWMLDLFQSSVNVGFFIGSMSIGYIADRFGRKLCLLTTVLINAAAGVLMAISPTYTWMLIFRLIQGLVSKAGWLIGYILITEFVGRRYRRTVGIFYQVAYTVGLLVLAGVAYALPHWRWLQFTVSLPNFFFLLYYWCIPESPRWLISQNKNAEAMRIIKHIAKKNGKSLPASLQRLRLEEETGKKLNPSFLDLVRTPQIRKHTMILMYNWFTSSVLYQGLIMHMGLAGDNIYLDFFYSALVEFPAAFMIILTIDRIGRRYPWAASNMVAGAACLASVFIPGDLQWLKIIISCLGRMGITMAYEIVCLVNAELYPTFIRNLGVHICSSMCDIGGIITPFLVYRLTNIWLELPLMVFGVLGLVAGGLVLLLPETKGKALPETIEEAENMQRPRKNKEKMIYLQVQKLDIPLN
# method.notes: Inhibition of OCT2-mediated oxaliplatin transport in 100% human serum or HBSS containing 4% BSA (IC50,app)
# experimental.context: human, MDCK-II cells transfected with human transporters, fold higher potency (selectivity) for OCT2 over OCT1, OCT3 and MATE1 in transporting oxaliplatin, from IC50,app of Table 4
outcome.measure: selectivity ratio

{"chemical.string": "C[C@@H]1CCO[C@H]2Cn3cc(C(=O)NCc4ccc(F)cc4F)c(=O)c(O)c3C(=O)N12", "selectivity ratio": "≥ 10"}

Q. Query (compound): COc1cc(OC)c(C(=O)CCCN2CCCC2)c(OC)c1 ; field requested: selectivity ratio
A. > 10

Origin of values: patent US11197862B2
